protocol.description: qHTS Assay for Lipid Storage Modulators (AID 1519); note: % is set by controls: 0 for no effect and ±100 for the full control effect
protocol.conditions: Drosophila S3 cells, BODIPY lipid droplet/cell ratio, laser cytometry; at 25.7 µM (top of the series); cells loaded with oleic acid
Results filed as inconclusive are left out. Activity calls are given as the source filed them. Calls come from the whole dose curve.
quantity.measured: activity change, negative = inhibition

Examples with answers:
molecule: Fc1ccc(C(OCCN2CCN(CCCc3ccccc3)CC2)c2ccc(F)cc2)cc1
experimental.result: -2.3% (inactive)

molecule: O=P1(NCCCl)OCCCN1CCCl (configuration not stated)
experimental.result: -0.105% (inactive)

molecule: CNCCCN1c2ccccc2CCc2ccccc21
experimental.result: -4.5% (inactive)

For the molecule `NCC1(CC(=O)O)CCCCC1` , report activity change, negative = inhibition.
-2.01% (inactive)

For the molecule `O=[N+]([O-])c1cc([As](=O)(O)O)ccc1O` , report activity change, negative = inhibition.
0.724% (inactive)

For the molecule `O=c1[nH]c2ccccc2n1CCCN1CCC(n2c(=O)[nH]c3cc(Cl)ccc32)CC1` , report activity change, negative = inhibition.
0.586% (inactive)

For the molecule `CCn1cc(C(=O)O)c(=O)c2ccc(C)nc21` , report activity change, negative = inhibition.
1.82% (inactive)

----------
protocol.description: Quantitative High-Throughput drug screen in 47 multiple myeloma cell lines against the NCATS MIPE library collection: ARP1_JJKsccF8 cell viability assay (AID 1918928; note: potency is the fitted concentration of half-maximal effect; nearly all actives have a fitted effect of over 40% in size)
protocol.conditions: ARP1 myeloma cells viability, CellTiter-Glo ATP, 48 h; series mostly up to 45.8 µM
Records with an inconclusive call do not appear. The source made the active and inactive calls. The call rests on the fitted dose curve; in most records, active means well fitted cell-killing curve with a large enough effect; inconclusive means small, poorly fitted or top-dose-only effect, or effect the other way; inactive means no such curve, though single readings can be large or run the other way.
Form field: Potency (one value per entry).

Examples with answers:
compound: C[C@@H]1[C@@H](C(=O)C[C@H]2O[C@@H]3O[C@]4(C)CC[C@@H]5[C@H](C)CC[C@@H]([C@H]2C)[C@@]35OO4)O[C@@H]2O[C@]3(C)CC[C@H]4[C@H](C)CC[C@@H]1[C@@]24OO3
Potency: 132 nM (active)
//
compound: CN(C)[C@@H]1C(=O)C(C(N)=O)=C(O)[C@@]2(O)C(=O)C3=C(O)c4c(O)cccc4[C@@](C)(O)[C@H]3C[C@@H]12
Potency: 16600 nM (active)

Could you now consider this next compound?
For the compound C[C@@H]1[C@@H](CC(C[C@H]2O[C@@H]3O[C@]4(C)CC[C@@H]5[C@H](C)CC[C@@H]([C@H]2C)[C@@]35OO4)C[S+](=O)([O-])c2ccc(COC(=O)N(C)C)cc2)O[C@@H]2O[C@]3(C)CC[C@H]4[C@H](C)CC[C@@H]1[C@@]24OO3 (some centres undefined) , report Potency.
93.5 nM (active)

----------
Tested on: AS120
protocol.description: qHTS profiling for inhibitors of Plasmodium falciparum proliferation (AID 504749); note: nearly all actives have a fitted effect of over 60% in size
protocol.conditions: P. falciparum in erythrocytes, SYBR Green DNA, 72 h; series mostly up to 28.7 µM
Method: NIH National Institute of Allergy and Infectious Diseases [NIAID] NIH Chemical Genomics Center [NCGC] […] Because mature erythrocytes lack DNA, only Plasmodium-derived DNA is detected. NCGC Assay Protocol Summary: The SYBR Green viability assay was adapted from a method described previously (Plouffe et al., 2008). […] The following morning, fluorescence intensity at 485(14) nm excitation and 535(25) nm emission wavelengths was measured on an EnVision (Perkin Elmer) plate reader. […]
Inconclusive results are not listed. Active and inactive are the calls of the source. The call rests on the fitted dose curve; in most records, active means well fitted inhibition curve with a large enough effect; inconclusive means small, poorly fitted or top-dose-only effect; inactive means flat fitted curve, though single readings scatter.
One label from this list, please: Yes (active), No (inactive)

compound: CC(=O)Nc1cc([As](=O)(O)O)ccc1O
discrete.label: No
--
compound: CC1OC(C)OC(C)O1 (configuration not stated)
discrete.label: No
--
compound: c1ccc2c(c1)Nc1ccccc1S2
discrete.label: No
--
compound: Clc1ccc(COC(Cn2ccnc2)c2ccc(Cl)cc2Cl)cc1 (configuration not stated)
discrete.label: Yes
--
compound: CC(C)NCC(O)c1ccccc1Cl (configuration not stated)
discrete.label: Yes

Identify the outcome logged in this assay for the compound shown: `COc1ccc(C(=O)c2c(C)n(CCN3CCOCC3)c3ccccc23)cc1`
No

Identify the outcome logged in this assay for the compound shown: `O=C(O)c1ccc2[nH]cc(CCCCN3CC=C(c4ccccc4)CC3)c2c1`
No

Identify the outcome logged in this assay for the compound shown: `N#CC(C#N)=Cc1ccc(O)c(O)c1`
No

Identify the outcome logged in this assay for the compound shown: `C=C(C)[C@H]1Cc2c(ccc3c2O[C@@H]2COc4cc(OC)c(OC)cc4[C@@H]2C3=O)O1`
No

Identify the outcome logged in this assay for the compound shown: `Oc1ccccc1-c1ccccc1`
No

Identify the outcome logged in this assay for the compound shown: `OCCOc1ccccc1`
No

Identify the outcome logged in this assay for the compound shown: `C[C@]12C/C(=C/O)C(=O)C[C@@H]1CC[C@@H]1[C@@H]2CC[C@@]2(C)[C@H]1CC[C@]2(C)O`
No

----------
Tested on: CP203
protocol.description: qHTS profiling for inhibitors of Plasmodium falciparum proliferation (AID 504749); note: nearly all actives have a fitted effect of over 60% in size; note: potency is the fitted concentration of half-maximal effect
protocol.conditions: P. falciparum in erythrocytes, SYBR Green DNA, 72 h; series mostly up to 28.7 µM
Results filed as inconclusive are left out. Activity calls are given as the source filed them. The call rests on the fitted dose curve; in most records, active means well fitted inhibition curve with a large enough effect; inconclusive means small, poorly fitted or top-dose-only effect; inactive means flat fitted curve, though single readings scatter.
quantity.measured: Potency

Examples with answers:
compound: NP(N)(=O)NC(=O)c1ccc(F)cc1
system: CP203
quantity.measured: Potency
experimental.result: inactive
--
compound: CCN(CC)CCOC(=O)C(O)(c1ccccc1)c1ccccc1
system: CP203
quantity.measured: Potency
experimental.result: inactive
--
compound: Cc1ccc(-c2nc3ccc(C)cn3c2CC(=O)N(C)C)cc1
system: CP203
quantity.measured: Potency
experimental.result: inactive
--
compound: NCC1(CC(=O)O)CCCCC1
system: CP203
quantity.measured: Potency
experimental.result: inactive
--
compound: O=C(NC(O)C(Cl)(Cl)Cl)NC(O)C(Cl)(Cl)Cl (configuration not stated)
system: CP203
quantity.measured: Potency
experimental.result: inactive

For the compound NCC(O)c1ccc(O)cc1 (configuration not stated) , report Potency.
inactive

For the compound `N#CC(C#N)=Cc1ccc(O)c(O)c1` , report Potency.
inactive

For the compound CCC1(C2=NCCN2)Cc2ccccc2O1 (configuration not stated) , report Potency.
10.7 µM (active)

For the compound `CC[N+](CC)(CC)CC` , report Potency.
inactive

For the compound `Oc1cc(Cl)ccc1Oc1ccc(Cl)cc1Cl` , report Potency.
15.1 µM (active)

For the compound `O=c1[nH]c2ccccc2n1C1CCN(CCCC(c2ccc(F)cc2)c2ccc(F)cc2)CC1` , report Potency.
inactive

For the compound CCC(C(N)=O)N1CCCC1=O (configuration not stated) , report Potency.
inactive

----------
protocol.description: MultiTox-Fluor Cytotoxicity Assay - LYMP1-003 - Dead Cells (AID 961);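 note: cells exposed to compound for 16 h at 37 °C; nearly all actives have a fitted effect of over 70% in size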
protocol.conditions: LYMP1-003 lymphoblastoid cells, dead-cell protease fluorescence; series mostly up to 92.2 µM
The source made the active and inactive calls. The call rests on the fitted dose curve; in most records, active means well fitted cell-killing curve with a large enough effect; inconclusive means small, poorly fitted or top-dose-only effect, or effect the other way; inactive means flat fitted curve, though single readings scatter.
One label from this list, please: active, inactive

Field: example entries. Status: answers known.
molecule: COc1cc2c(c(OC)c1OC)-c1ccc(OC)c(=O)cc1[C@@H](NC(C)=O)CC2
discrete.label: active

molecule: CC(=O)Oc1ccccc1C(=O)Nc1ncc([N+](=O)[O-])s1
discrete.label: active

molecule: CNCC(O)c1ccc(O)cc1 (stereo not given)
discrete.label: inactive

molecule: CC/C(=C(\c1ccccc1)c1ccc(OCCN(C)C)cc1)c1ccccc1
discrete.label: active

In the following, a different molecule is considered.
Identify the outcome logged in this assay for the molecule shown: `CC1=C(/C=C/C(C)=C/C=C/C(C)=C/C(=O)Nc2ccc(O)cc2)C(C)(C)CCC1`
active

----------
protocol.description: qHTS assay for small molecule agonists of the antioxidant response element (ARE) signaling pathway measured by Nrf2-dependant transcriptional activity - cell viability counter screen (AID 720653); note: % is set by controls: 0 for no effect and ±100 for the full control effect
protocol.conditions: ARE-bla HepG2 viability, CellTiter-Glo ATP luminescence, 16 h; active compounds read low
Records with an inconclusive call do not appear.
quantity.measured: max response (%)
The response must be a number in % with no trailing unit.

Examples with answers:
compound: Cc1cc(SCc2sc(-c3ccc(C(F)(F)F)c(F)c3)nc2C)ccc1OCC(=O)O
quantity.measured: max response
experimental.result: -1.47
//
compound: CC(COc1ccccc1)N(CCCl)Cc1ccccc1 (stereo not drawn)
quantity.measured: max response
experimental.result: -12.5
//
compound: CC(C)(C)CC(C)(C)c1ccc(O)cc1
quantity.measured: max response
experimental.result: -9.38

For the compound Clc1ccc(COC(Cn2ccnc2)c2ccc(Cl)cc2Cl)cc1 (stereo not drawn) , report max response.
-7.45

For the compound `Oc1cccc2cccnc12` , report max response.
-16.3

For the compound `CN(C)CCC=C1c2ccccc2CCc2ccccc21` , report max response.
-15

For the compound `C[C@]12CCC(=O)C(O)=C1CC[C@@H]1[C@@H]2CC[C@]2(C)C(=O)CC[C@@H]12` , report max response.
-0.568

For the compound O=c1oc2ccccc2c(O)c1C(CC(O)c1ccc(-c2ccc(Br)cc2)cc1)c1ccccc1 (stereo not drawn) , report max response.
-8.71
